Protocol: RP-HPLC retention on XTerra RP18, methanol/buffer; extrapolated retention factor log kw and slope S
Format: physicochemical
Details: pH 9.1; intercept, extrapolated to 100 % buffer; methanol/buffer, 25 °C
Structures can show the parent of a compound that is named as a salt.
Rule: measured log kw below 2 gets fulfilled; anything equal to or greater than 2 gets not fulfilled.

                                    molecule       category
 0  CCOc1ccccc1OCCN[C@H](C)Cc1ccc(OC)c(S(N)(=O)=O)c1 [Tamsulosin, tamsulosin hydrochloride]  not fulfilled
 1  Cc1cc(C(C)(C)C)c(O)c(C)c1CC1=NCCN1 [Oxymetazoline, oxymetazoline hydrochloride]  not fulfilled
 2  c1cc2c(c(NC3=NCCN3)c1)CCCC2 [Tramazoline, Tramazoline hydrochloride]      fulfilled
 3  CN[C@@H](C)[C@@H](O)c1ccccc1 [Pseudoephedrine, pseudoephedrine hydrochloride]      fulfilled
 4  C1COC(NC(C2CC2)C2CC2)=N1 [Rilmenidine, rilmenidine hemifumarate]      fulfilled
 5  CN1CCN(C2=Nc3cc(Cl)ccc3Nc3ccccc32)CC1 [Clozapine, clozapine]  not fulfilled
 6  CC1Cc2ccccc2N1NC(=O)c1ccc(Cl)c(S(N)(=O)=O)c1 (stereo not shown) [Indapamide, indapamide]  not fulfilled
 7  Clc1cccc(Cl)c1N=C1NCCN1 [Clonidine, Clonidine hydrochloride]      fulfilled
 8  COc1ccccc1OCCNCC(O)COc1cccc2[nH]c3ccccc3c12 (stereo not shown) [Carvedilol, carvedilol]  not fulfilled
 9  Brc1c(NC2=NCCN2)ccc2nccnc12 [Brimonidine, brimonidine hydrochloride]      fulfilled
10  c1ccc2c(CC3=NCCN3)cccc2c1 [Naphazoline, naphazoline hydrochloride]      fulfilled
11  COc1nc(C)nc(Cl)c1N=C1NCCN1 [Moxonidine, moxonidine hydrochloride]      fulfilled
12  COc1ccc2c(c1)[nH]c1c(C)nccc12 [Harmine, harmine hydrochloride]  not fulfilled
13  CCC1(C2=NCCN2)Cc2ccccc2O1 (stereo not shown) [Efaroxan, efaroxan hydrochloride]      fulfilled
14  CNC[C@H](O)c1cccc(O)c1 [Phenilephrine, Phenilephrine hydrochloride]      fulfilled
15  COc1cc2nc(N3CCN(C(=O)C4COc5ccccc5O4)CC3)nc(N)c2cc1OC (stereo not shown) [Doxazosin, doxazosin mesilat]  not fulfilled
